molecular target: D(1A) dopamine receptor (Rattus norvegicus); test: Displacement of [3H]SCH-23390 from rat dopamine D1 receptor
Sequence (P18901 whole entry): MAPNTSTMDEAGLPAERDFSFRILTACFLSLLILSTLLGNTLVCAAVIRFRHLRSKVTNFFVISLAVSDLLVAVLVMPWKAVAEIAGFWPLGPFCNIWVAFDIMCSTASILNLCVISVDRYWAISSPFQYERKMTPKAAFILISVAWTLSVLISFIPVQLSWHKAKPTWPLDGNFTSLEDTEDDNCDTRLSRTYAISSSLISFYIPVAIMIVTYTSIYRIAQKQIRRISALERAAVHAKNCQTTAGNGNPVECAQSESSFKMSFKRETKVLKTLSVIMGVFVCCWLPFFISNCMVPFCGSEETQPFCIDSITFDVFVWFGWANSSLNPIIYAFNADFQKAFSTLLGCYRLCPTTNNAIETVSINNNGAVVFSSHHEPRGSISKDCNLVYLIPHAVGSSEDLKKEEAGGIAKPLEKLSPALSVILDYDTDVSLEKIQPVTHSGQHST
Listing of entries alongside the reported log10 of Ki.
Note: values are log10 of Ki expressed in µM.

Below are worked cases with known answers.
compound: COc1cc2c3c(c1OC)Cc1ccccc1CC3NCC2 (stereo unspecified)
measured-target: D(1A) dopamine receptor (Rattus norvegicus)
numeric-value: 0.63

compound: CCN1CCc2cc(O)c(O)c3c2C1Cc1ccccc1C3 (stereo unspecified)
measured-target: D(1A) dopamine receptor (Rattus norvegicus)
numeric-value: 0.92

compound: CN1CCc2cc(O)c(O)c3c2C1Cc1ccccc1C3 (stereo unspecified)
measured-target: D(1A) dopamine receptor (Rattus norvegicus)
numeric-value: 0.79

compound: CCCN1CCc2cc(F)cc3c2[C@H]1Cc1cccc(OC=O)c1-3
measured-target: D(1A) dopamine receptor (Rattus norvegicus)
numeric-value: -0.10

--- query ---
stdin: Any idea what log10 of Ki was measured for CCCN1CCc2cccc3c2[C@H]1Cc1ccc(C)c(O)c1-3 ?
stdout: 0.30
